method: Solubility test of compound (a) with and without solubilizers (Experimental Example 1; HPLC of filtrate)
assaySetup: phosphate buffer, pH 6.5, aqueous buffer, Solubility of Compound (a), Tween 80 10 mg/ml; pH 6.5, 25° C., 48 hours
observedProperty: solubility at 48 h (µg/mL)
Kindly answer with a numeric value in µg/mL, unit omitted.

solubility at 48 h in this record for CC(C)c1ccc2oc3nc(N)c(C(=O)O)cc3c(=O)c2c1 : 470

---

method: Solubility test of compound (a) with and without solubilizers (Experimental Example 1; HPLC of filtrate)
assaySetup: phosphate buffer, pH 7.5, aqueous buffer, Solubility of Compound (a), Control, no solubilizer; pH 7.5, 25° C., 48 hours
observedProperty: solubility at 48 h (µg/mL)
Kindly answer with a numeric value in µg/mL, unit omitted.

solubility at 48 h in this record for CC(C)c1ccc2oc3nc(N)c(C(=O)O)cc3c(=O)c2c1 : 1050

---

method: Solubility of compound (a)
Type: physicochemical
assaySetup: neutral to alkaline region (pH 7.2-7.8); read-out: solubility
observedProperty: solubility

solubility in this record for CC(C)c1ccc2oc3nc(N)c(C(=O)O)cc3c(=O)c2c1 : ~1100 µg/mL

---

method: Solubility test of compound (a) with and without solubilizers (Experimental Example 1; HPLC of filtrate)
assaySetup: phosphate buffer, pH 7.5, aqueous buffer, Solubility of Compound (a), Nicotinic acid amide 10 mg/ml; pH 7.5, 25° C., 48 hours
observedProperty: solubility at 48 h

solubility at 48 h in this record for CC(C)c1ccc2oc3nc(N)c(C(=O)O)cc3c(=O)c2c1 : 1530 µg/mL

---

method: Solubility test of compound (a) with and without solubilizers (Experimental Example 1; HPLC of filtrate)
assaySetup: phosphate buffer, pH 6.5, aqueous buffer, Solubility of Compound (a), Polyvinylpyrrolidone (average molecular weight 40000) 10 mg/ml; pH 6.5, 25° C., 48 hours
observedProperty: solubility at 48 h
A bare number is not enough; add the unit after it.

solubility at 48 h in this record for CC(C)c1ccc2oc3nc(N)c(C(=O)O)cc3c(=O)c2c1 : 420 µg/mL

---

method: Stability test of compound (a) in solution, remaining ratio at 60° C. (Experimental Example 2)
Type: physicochemical
assaySetup: phosphate buffer, pH 7.5, compound (a) 1.0 mg/ml; PVP (MW 40,000) 20 mg/ml; pH 7.5±0.1; 60° C. after 4 weeks
observedProperty: remaining at 672 h (%)
Kindly answer with a numeric value in %, unit omitted.

remaining at 672 h in this record for CC(C)c1ccc2oc3nc(N)c(C(=O)O)cc3c(=O)c2c1 : 98.4

---

method: Solubility test of compound (a) with and without solubilizers (Experimental Example 1; HPLC of filtrate)
assaySetup: phosphate buffer, pH 7.5, aqueous buffer, Solubility of Compound (a), Polyvinylpyrrolidone (average molecular weight 40000) 50 mg/ml; pH 7.5, 25° C., 48 hours
Experimental: Solubility tests of the compound (a) (2-amino-7-isopropyl-5-oxo-5H-[1]-benzopyrano[2,3-b]pyridine-3-carboxylic acid) employing the solubilizers of this invention and, for comparison, employing various conventional solubilizers were performed. The solubility was measured by the following manner: […]
observedProperty: solubility at 48 h (mg/mL)
Kindly answer with a numeric value in mg/mL, unit omitted.

solubility at 48 h in this record for CC(C)c1ccc2oc3nc(N)c(C(=O)O)cc3c(=O)c2c1 [Compound (a)] : 10.4

---

method: Stability test of compound (a) in solution, remaining ratio at 60° C. (Experimental Example 2)
Type: physicochemical
assaySetup: phosphate buffer, pH 7.5, compound (a) 2.5 mg/ml; PVP (MW 40,000) 50 mg/ml; pH 7.5±0.1; 60° C. after 4 weeks
observedProperty: remaining at 672 h (%)
Kindly answer with a numeric value in %, unit omitted.

remaining at 672 h in this record for CC(C)c1ccc2oc3nc(N)c(C(=O)O)cc3c(=O)c2c1 : 99.1

---

method: Solubility test of compound (a) with and without solubilizers (Experimental Example 1; HPLC of filtrate)
assaySetup: phosphate buffer, pH 6, aqueous buffer, Solubility of Compound (a), Caffeine 10 mg/ml; pH 6.0, 25° C., 48 hours
observedProperty: solubility at 48 h (µg/mL)
Kindly answer with a numeric value in µg/mL, unit omitted.

solubility at 48 h in this record for CC(C)c1ccc2oc3nc(N)c(C(=O)O)cc3c(=O)c2c1 [Compound (a)] : 1650

---

method: Solubility test of compound (a) with and without solubilizers (Experimental Example 1; HPLC of filtrate)
assaySetup: phosphate buffer, pH 7, aqueous buffer, Solubility of Compound (a), Control, no solubilizer; pH 7.0, 25° C., 48 hours
observedProperty: solubility at 48 h (µg/mL)
Kindly answer with a numeric value in µg/mL, unit omitted.

solubility at 48 h in this record for CC(C)c1ccc2oc3nc(N)c(C(=O)O)cc3c(=O)c2c1 : 330

---

method: Solubility of compound (a)
Type: physicochemical
assaySetup: water; pH 7.5, cold chamber (5° C.); read-out: solubility in water
observedProperty: solubility (µg/mL)
Kindly answer with a numeric value in µg/mL, unit omitted.

solubility in this record for CC(C)c1ccc2oc3nc(N)c(C(=O)O)cc3c(=O)c2c1 : 300

---

method: Solubility test of compound (a) with and without solubilizers (Experimental Example 1; HPLC of filtrate)
assaySetup: phosphate buffer, pH 7.5, aqueous buffer, Solubility of Compound (a), Tween 80 10 mg/ml; pH 7.5, 25° C., 48 hours
observedProperty: solubility at 48 h (µg/mL)
Kindly answer with a numeric value in µg/mL, unit omitted.

solubility at 48 h in this record for CC(C)c1ccc2oc3nc(N)c(C(=O)O)cc3c(=O)c2c1 [Compound (a)] : 1180

---

method: Stability test of compound (a) in solution, remaining ratio at 60° C. (Experimental Example 2)
Assay type: physicochemical
assaySetup: phosphate buffer, pH 7.5, compound (a) 5.0 mg/ml; PVP (MW 40,000) 10 mg/ml + caffeine 10 mg/ml; pH 7.5±0.1; 60° C. after 8 weeks
observedProperty: remaining at 1344 h

remaining at 1344 h in this record for CC(C)c1ccc2oc3nc(N)c(C(=O)O)cc3c(=O)c2c1 : 98.2%

---

method: Solubility test of compound (a) with and without solubilizers (Experimental Example 1; HPLC of filtrate)
assaySetup: phosphate buffer, pH 7, aqueous buffer, Solubility of Compound (a), Sodium benzoate 20 mg/ml; pH 7.0, 25° C., 48 hours
observedProperty: solubility at 48 h (µg/mL)
Kindly answer with a numeric value in µg/mL, unit omitted.

solubility at 48 h in this record for CC(C)c1ccc2oc3nc(N)c(C(=O)O)cc3c(=O)c2c1 : 420

---

method: Solubility test of compound (a) with and without solubilizers (Experimental Example 1; HPLC of filtrate)
assaySetup: phosphate buffer, pH 6, aqueous buffer, Solubility of Compound (a), Polyvinylpyrrolidone (average molecular weight 40000) 50 mg/ml; pH 6.0, 25° C., 48 hours
observedProperty: solubility at 48 h (µg/mL)
Kindly answer with a numeric value in µg/mL, unit omitted.

solubility at 48 h in this record for CC(C)c1ccc2oc3nc(N)c(C(=O)O)cc3c(=O)c2c1 [Compound (a)] : 320

---

method: Solubility test of compound (a) with and without solubilizers (Experimental Example 1; HPLC of filtrate)
assaySetup: phosphate buffer, pH 6.5, aqueous buffer, Solubility of Compound (a), Control, no solubilizer; pH 6.5, 25° C., 48 hours
observedProperty: solubility at 48 h (µg/mL)
Kindly answer with a numeric value in µg/mL, unit omitted.

solubility at 48 h in this record for CC(C)c1ccc2oc3nc(N)c(C(=O)O)cc3c(=O)c2c1 : 80

---

method: Solubility test of compound (a) with and without solubilizers (Experimental Example 1; HPLC of filtrate)
assaySetup: phosphate buffer, pH 7, aqueous buffer, Solubility of Compound (a), Polyvinylpyrrolidone (average molecular weight 40000) 100 mg/ml; pH 7.0, 25° C., 48 hours
observedProperty: solubility at 48 h

solubility at 48 h in this record for CC(C)c1ccc2oc3nc(N)c(C(=O)O)cc3c(=O)c2c1 : 10 mg/mL

---

method: Solubility test of compound (a) with and without solubilizers (Experimental Example 1; HPLC of filtrate)
assaySetup: phosphate buffer, pH 7.5, aqueous buffer, Solubility of Compound (a), Caffeine 5 mg/ml; pH 7.5, 25° C., 48 hours
observedProperty: solubility at 48 h
A bare number is not enough; add the unit after it.

solubility at 48 h in this record for CC(C)c1ccc2oc3nc(N)c(C(=O)O)cc3c(=O)c2c1 [Compound (a)] : 7.44 mg/mL

---

method: Solubility test of compound (a) with and without solubilizers (Experimental Example 1; HPLC of filtrate)
assaySetup: phosphate buffer, pH 7, aqueous buffer, Solubility of Compound (a), Nicotinic acid amide 10 mg/ml; pH 7.0, 25° C., 48 hours
observedProperty: solubility at 48 h (µg/mL)
Kindly answer with a numeric value in µg/mL, unit omitted.

solubility at 48 h in this record for CC(C)c1ccc2oc3nc(N)c(C(=O)O)cc3c(=O)c2c1 : 1210
